Provenance of the data: patent US12279521B2

- EXPERIMENTAL_PROTOCOL: Solubility in organic solvents via HPTLC (after 24 hours and 7 days)
- Format: physicochemical
- EXPERIMENTAL_PARAMETERS: mesitylene, 24 hours, room temperature
Attribute: Solubility after 24 hours, Mesitylene

- COMPOUND: "c1ccc(-c2cc(-c3ccccc3)cc(-c3cccc(-c4cccc(C5(c6cccc(-c7cccc(-c8cc(-c9ccccc9)cc(-c9ccccc9)c8)c7)c6)c6ccccc6-c6c(-c7ccccc7)cccc65)c4)c3)c2)cc1 [Compound M-0002]"
  Solubility after 24 hours, Mesitylene: ">50 mg/mL"
- COMPOUND: "c1ccc(-c2cccc(-c3cc(-c4cccc(-c5ccccc5)c4)cc(C4(c5cc(-c6cccc(-c7ccccc7)c6)cc(-c6cccc(-c7ccccc7)c6)c5)c5ccccc5-c5c(-c6ccccc6)cccc54)c3)c2)cc1 [Compound M-0005]"
  Solubility after 24 hours, Mesitylene: ">50 mg/mL"
- COMPOUND: "c1ccc(-c2cc(-c3ccccc3)cc(-c3cccc(-c4cccc(C5(c6cccc(-c7cccc(-c8cc(-c9ccccc9)cc(-c9ccccc9)c8)c7)c6)c6cc7c(cc6-c6c5ccc5c6-c6ccccc6C56c5ccccc5-c5ccccc56)OCO7)c4)c3)c2)cc1 [Compound M-0226]"
  Solubility after 24 hours, Mesitylene: "<20 mg/mL"
- COMPOUND: "Cc1ccc2c(c1)-c1c(-c3cccc(-c4ccccc4)c3)cccc1C2(c1cccc(-c2cccc3c2-c2ccccc2C3(C)C)c1)c1cccc(-c2cccc3c2-c2ccccc2C3(C)C)c1 [Compound M-0172]"
  Solubility after 24 hours, Mesitylene: "<30 mg/mL"

API: the following record is the query input.
Entry c1ccc(-c2cccc(-c3cc(-c4cccc(-c5ccccc5)c4)cc(C4(c5cc(-c6cccc(-c7ccccc7)c6)cc(-c6cccc(-c7ccccc7)c6)c5)c5ccccc5-c5c(-c6ccccc6-c6ccccc6)cccc54)c3)c2)cc1 [Compound M-0043] — recorded Solubility after 24 hours, Mesitylene = <50 mg/mL

---

Attribute: Solubility after 7 days, Cyclohexylbenzene
- EXPERIMENTAL_PROTOCOL: Solubility in organic solvents via HPTLC (after 24 hours and 7 days)
- Format: physicochemical
- EXPERIMENTAL_PARAMETERS: cyclohexylbenzene, 7 days storage at room temperature

Some solved entries appear below for comparison.
- SMILES_CODE: "c1ccc(-c2cccc(-c3cc(-c4cccc(-c5ccccc5)c4)cc(C4(c5cc(-c6cccc(-c7ccccc7)c6)cc(-c6cccc(-c7ccccc7)c6)c5)c5ccccc5-c5c(-c6ccccc6)cccc54)c3)c2)cc1"
  OBSERVED: ">50 g/L"
- SMILES_CODE: "c1ccc(-c2cccc(-c3cc(-c4cccc(-c5ccccc5)c4)cc(C4(c5cc(-c6cccc(-c7ccccc7)c6)cc(-c6cccc(-c7ccccc7)c6)c5)c5ccccc5-c5c(-c6ccccc6-c6ccccc6)cccc54)c3)c2)cc1"
  OBSERVED: "<50 g/L"
- SMILES_CODE: "c1ccc(-c2cc(-c3ccccc3)cc(-c3cccc(-c4cccc(C5(c6cccc(-c7cccc(-c8cc(-c9ccccc9)cc(-c9ccccc9)c8)c7)c6)c6cc7c(cc6-c6c5ccc5c6-c6ccccc6C56c5ccccc5-c5ccccc56)OCO7)c4)c3)c2)cc1"
  OBSERVED: "<25 g/L"
- SMILES_CODE: "c1ccc(-c2cc(-c3ccccc3)cc(-c3cccc(-c4cccc(C5(c6cccc(-c7cccc(-c8cc(-c9ccccc9)cc(-c9ccccc9)c8)c7)c6)c6ccccc6-c6c(-c7ccccc7)cccc65)c4)c3)c2)cc1"
  OBSERVED: "<1 g/L"

API: the following record is the query input.
Entry "Cc1ccc2c(c1)-c1c(-c3cccc(-c4ccccc4)c3)cccc1C2(c1cccc(-c2cccc3c2-c2ccccc2C3(C)C)c1)c1cccc(-c2cccc3c2-c2ccccc2C3(C)C)c1" — recorded Solubility after 7 days, Cyclohexylbenzene = <40 g/L
